# Test system: SNB-75 CNS
# protocol summary: NCI-60 one-dose screen, 48 h (100 = growth as untreated, 0 = no growth, -100 = all killed)
# condition summary: 10 µM unless noted
About 83,000 compounds went through this panel and 20% of them were active in at least one assay; those are over-represented in the sample as a whole. Activity calls are given as the source filed them. How the source made its calls: active means growth percent below 10; inactive means the rest.
outcome measure: growth

- [Cl][Hg][c]1cc[c]([Hg][Cl])o1: 54.4% (inactive)
- COC(=O)[C@@H](C)C[C@H](Cc1ccccc1)NC(=O)c1nc([C@@H](C[C@H](C(C)C)N(C)C(=O)[C@@H](NC(=O)[C@H]2CCCCN2C)C(C)C)OC(C)=O)sc1C(C)C: -0.49% (active)
- CCC(O)(CN)c1ccccc1 (stereo not given): 93.5% (inactive)
- CCOc1ccc(/C=C/[N+](=O)[O-])cc1: 90.6% (inactive)

// next entry
Response field growth (SNB-75 CNS) for item Fc1ccc2c(c1)c(-c1nc(-c3c[nH]c4ncccc34)cs1)cn2CCCCN1CCCCC1 : -70.5% (active)
